Can you tell me inhibition at 0.1 µg/mL for the items I'm about to list?
# system: mouse DGAT1 (Mus musculus)
# Construct: made in house; host or cells: insect cells (High Five, Sf9, Sf21, etc.), baculovirus expression system (Invitrogen)
# Sequence (Q9Z2A7 whole entry): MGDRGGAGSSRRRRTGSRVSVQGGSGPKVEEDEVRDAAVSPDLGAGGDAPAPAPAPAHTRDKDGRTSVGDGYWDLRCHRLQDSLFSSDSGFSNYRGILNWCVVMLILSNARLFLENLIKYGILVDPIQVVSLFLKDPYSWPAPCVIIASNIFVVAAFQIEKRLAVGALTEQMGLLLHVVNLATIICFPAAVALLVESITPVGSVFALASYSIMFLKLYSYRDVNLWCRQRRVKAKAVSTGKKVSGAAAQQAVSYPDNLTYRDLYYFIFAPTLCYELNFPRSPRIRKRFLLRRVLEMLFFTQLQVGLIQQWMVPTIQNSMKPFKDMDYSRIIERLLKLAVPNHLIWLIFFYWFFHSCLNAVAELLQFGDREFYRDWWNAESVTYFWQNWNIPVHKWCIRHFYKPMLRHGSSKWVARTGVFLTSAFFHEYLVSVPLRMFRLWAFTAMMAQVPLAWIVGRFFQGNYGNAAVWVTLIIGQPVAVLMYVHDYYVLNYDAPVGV
# measurement.description: DGAT1 inhibitory effect test (microsome fraction, [14C]-oleoyl-CoA, triglyceride radioactivity by TLC)
# Format: biochemical
# measurement.context: 0.5 h; concentration of the test compound 0.1 μg/ml; mouse DGAT1 microsomes, 23° C., 30 minutes; read-out: Inhibitory ratio

Form field: reported inhibition at 0.1 µg/mL of COc1ccc(C)cc1NC(=O)Nc1ccc(N2CCN(C(=O)Nc3ccc(OCCO)cc3Cl)CC2)c(F)c1 [Example 253]
≥ 50%

Form field: reported inhibition at 0.1 µg/mL of O=C(Nc1ccc(N2CCN(C(=O)C(O)c3ccc(O)cc3Cl)CC2)nc1)Nc1ccccc1F (centres unmarked) [Example 379]
≥ 50%

Form field: reported inhibition at 0.1 µg/mL of CCOc1ccc(C)cc1NC(=O)Nc1ccc(N2CCN(C(=O)Nc3c(C)cccc3Cl)CC2)cc1 [Example 85]
≥ 50%

Form field: reported inhibition at 0.1 µg/mL of COc1ccc(C)cc1NC(=O)Nc1ccc(N2CCN(C(=O)Nc3c(C)cc(Cl)cc3C)CC2)cc1 [Example 174]
≥ 50%

Form field: reported inhibition at 0.1 µg/mL of COc1cc(NC(=O)Nc2ccc(N3CCN(C(=O)Nc4ncc(F)cc4F)CC3)cc2)cc(OC)c1 [Example 341]
≥ 50%

Form field: reported inhibition at 0.1 µg/mL of COc1ccc(C)cc1NC(=O)Nc1ccc(N2CCN(C(=O)Nc3ncccc3C)CC2)c(F)c1 [Example 312]
≥ 50%

Form field: reported inhibition at 0.1 µg/mL of COc1cc(NC(=O)Nc2ccc(N3CCN(C(=O)Nc4cc(OCCO)ccc4Cl)CC3)cc2)cc(OC)c1 [Example 234]
≥ 50%

Form field: reported inhibition at 0.1 µg/mL of CCc1ccccc1NC(=O)Nc1ccc(N2CCN(C(=O)Nc3c(C)cccc3Cl)CC2)cc1 [Example 128]
≥ 50%

This collection of values is drawn from patent US20070249620A1.
